- Tested on: TO-3-N3 (biotin conjugate)
- testMethodNotes: pull-down binding Z-score (relative to library population); higher = stronger binding
- conditionsUsed: RNA library: Library-2
Kindly return 1 (yes) if reported pull-down binding Z-score is no lower than 0.3; return 0 (no) if it is lower.

# example entries with known answers
>>> df
                             sequencerecord  answerlabel
0    GACUGCUCAAGGUCAAAGGGGUC [hsa-mir-3918]       0 (no)
1  AGGGGACACGGGCAAAGACUUGGGGGUUCCUGGGACCCUCAGACGUGUGUCCUCU [hsa-mir-877]       0 (no)
2  CCAUGGUGUGCUCUGAUCCCCCUGUGG [hsa-mir-6848]      1 (yes)
3        UUGUCGUUAAAAAUAGCAA [hsa-mir-548n]       0 (no)

// switching to the query sequence
Exam item: Evaluate CUACAUCGUGGAAGCCAGCACCAUGCAG [hsa-mir-455] : pull-down binding Z-score at minimum 0.3?
Marked response: 1 (yes)

Just for reference, the supplement of paper PMC11865577 is where these values come from.
